B1: Mineralocorticoid receptor, residues 600 to 675; numbered along this chain, P08235 (parent)
chain: SKICLVCGDEASGCHYGVVTCGSCKVFFKRAVEGQHNYLCAGRNDCIIDKIRRKNCPACRLQKCLQAGMNLGARKS

variants of: B1; experiment: abundance fitness (aPCA) (normalised: wild type 0, dead -1); higher = more abundant; growth selection in yeast, the domain comes from the species named; conditions: Homo sapiens
This section presents variants with their documented abundance fitness values.
Give the figure only, with no unit attached.

variantDesignation	abundance fitness
D49N	-0.054
Y16Q	-0.068
E33G	0.062
E33F	-0.137

**Query** Look up abundance fitness: "K63Q"
**Result** -0.134

**Query** Look up abundance fitness: "T20D"
**Result** -0.49
